The measurements presented in this section are drawn from patent EP4702986A1.

# test-system: human ETA receptor (Homo sapiens, UniProt P25101)
# Construct: expressed in transfected cells; host or cells: 293T-17 cells, transient transfection
# Sequence (P25101 21-427): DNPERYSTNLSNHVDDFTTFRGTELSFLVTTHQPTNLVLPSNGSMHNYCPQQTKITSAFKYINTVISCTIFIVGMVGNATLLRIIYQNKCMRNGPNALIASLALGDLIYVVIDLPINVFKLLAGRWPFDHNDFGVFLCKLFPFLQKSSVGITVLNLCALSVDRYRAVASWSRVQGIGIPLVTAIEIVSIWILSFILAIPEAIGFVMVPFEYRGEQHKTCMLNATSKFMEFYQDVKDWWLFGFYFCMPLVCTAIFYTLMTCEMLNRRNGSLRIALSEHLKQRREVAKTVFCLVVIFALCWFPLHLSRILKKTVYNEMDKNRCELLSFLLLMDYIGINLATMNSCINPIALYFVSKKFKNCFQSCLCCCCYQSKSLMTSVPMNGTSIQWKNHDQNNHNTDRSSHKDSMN
# assay-details: Selectivity of polypeptides on human ETA receptor (IP-One Gq kit, % of positive control ET1)
# Type: cell-based
# setup-conditions: @10µM
Numbered stars: 1 amine (or outer) side, 2 acyl side, 3 side chain; on linkers, the order of the positions; unused ones are H or OH. Side chains are listed from the residue outwards. Ends that are not written are not given here. * marks the point of attachment. C18 diacid = O=C(O)CCCCCCCCCCCCCCCCC(=O)*; γGlu = O=C(O)[C@H](CCC(=O)[*:2])N[*:1]; Suc = O=C(CCC(=O)[*:2])[*:1]; AEEA = NCCOCCOCC(=O)O
The label condition met is reserved for hETAR agonist activity, percentage of activity relative to ET1 strictly under -10 %@10µM; condition not met covers values equal to or above it.

>>> class_label("Fum-DEEEVYFAHOrnDIIW [BX-59]")
"condition met"
>>> class_label("Fum-D cyclo(EEAK)YFAHLD(2-Abu)IW [BX-64]")
"condition met"
>>> class_label("Suc-DE cyclo(CEEC)YFAHKDIIW (Suc-DECEECYFAHKDIIW; not fully specified (bridges); printed as Suc-DE cyclo(CEEC)YFAHKDIIW; also: cyclo(CEEC) in N-terminal extension, bond type not given here) [BX-57]")
"condition met"
>>> class_label("Suc-DEEAVYFAHK(-γE-AEEA-AEEA-ODDA)DVIW (Suc-DEEAVYFAHK([γGlu-AEEA-AEEA-C18 diacid])DVIW) [BX-78]")
"condition not met"
>>> class_label("Suc-D cyclo(EEAK)YFAHLD(2-Abu)IW [BX-63]")
"condition met"
>>> class_label("Fum-DEEK(-γE-AEEA-AEEA-ODDA)VYFAHLDIIW (Fum-DEEK with lipidated linker N-terminal) [BX-66]")
"condition not met"
